# Tested on: Plasmodium falciparum
# experiment-notes: In vitro antimalarial activity for Plasmodium falciparum NF54
# Format: functional
endpoint: MIC (mg/L)

1. [C-]#[N+]c1ccc(C(C)=O)cc1; 2
2. [C-]#[N+]c1ccc2c(c1)Cc1ccccc1-2; 2
3. [C-]#[N+]C1C[C@H](C)CC[C@H]1C(C)C (some centres not stated); 50
4. CCN(CC)CCCC(C)Nc1ccnc2cc(Cl)ccc12 (configuration not stated); 0.04
5. [C-]#[N+]C12CC3CC(CC(C3)C1)C2; 0.4
6. C[C@@H]1CC[C@H]2[C@@H](C)C(=O)O[C@@H]3O[C@@]4(C)CC[C@@H]1[C@]32OO4; 0.03
7. [C-]#[N+]c1cccc2ccccc12; 50
8. [C-]#[N+]c1ccc(-c2ccccc2)cc1; 1
9. [C-]#[N+]c1ccc2ccccc2c1; 50
10. [C-]#[N+]c1ccc(Br)cc1Br; 50
